# target-system: human placental aromatase (Homo sapiens, UniProt P11511)
# Sequence (P11511 1-503): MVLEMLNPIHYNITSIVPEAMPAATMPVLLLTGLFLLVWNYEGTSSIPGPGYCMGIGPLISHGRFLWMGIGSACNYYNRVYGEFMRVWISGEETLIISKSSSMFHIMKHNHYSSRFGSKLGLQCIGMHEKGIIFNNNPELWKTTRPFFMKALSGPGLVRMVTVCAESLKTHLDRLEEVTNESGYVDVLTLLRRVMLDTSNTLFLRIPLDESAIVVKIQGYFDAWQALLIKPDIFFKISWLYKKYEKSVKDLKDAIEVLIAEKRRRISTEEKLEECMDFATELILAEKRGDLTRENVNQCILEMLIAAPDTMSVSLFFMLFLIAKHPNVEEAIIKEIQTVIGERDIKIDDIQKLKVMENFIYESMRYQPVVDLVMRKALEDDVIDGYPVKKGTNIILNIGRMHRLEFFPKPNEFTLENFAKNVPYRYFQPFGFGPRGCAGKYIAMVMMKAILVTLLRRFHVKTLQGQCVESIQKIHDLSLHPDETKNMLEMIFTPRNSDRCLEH
measure: IC50
Kindly report the value followed by its unit.

Q: Provide the documented IC50 with human placental aromatase (Homo sapiens, UniProt P11511) as the system for C[C@]12C=CC(=O)c3[nH]cc(c31)C[C@@H]1[C@@H]2CC[C@]2(C)C(=O)CC[C@@H]12
Ans: 120 nM
